biological target: UniProtKB P41146; assay: nociceptin receptor (ORL-1) binding assay, 125I-Tyr14-nociceptin displacement
Sequence (P41146 whole entry): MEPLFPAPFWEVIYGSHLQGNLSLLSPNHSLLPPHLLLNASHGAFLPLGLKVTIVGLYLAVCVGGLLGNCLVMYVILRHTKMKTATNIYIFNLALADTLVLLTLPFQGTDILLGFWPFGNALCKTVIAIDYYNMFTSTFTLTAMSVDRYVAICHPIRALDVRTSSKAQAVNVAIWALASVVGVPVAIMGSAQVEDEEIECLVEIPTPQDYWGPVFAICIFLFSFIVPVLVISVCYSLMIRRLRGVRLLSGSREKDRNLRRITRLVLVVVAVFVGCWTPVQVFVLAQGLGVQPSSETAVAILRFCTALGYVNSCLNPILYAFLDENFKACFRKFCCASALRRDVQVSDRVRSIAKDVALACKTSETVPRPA
value-kind: pIC50
In simple prose, pIC50 is minus the logarithm base ten of a concentration in moles per litre.

{"columns": ["compound", "readout-value"],
 "data": [
  ["COC(=O)CN1C(=O)C2(CCN(CC3CCCCC3)CC2)c2ccccc21", 6.10],
  ["COC(=O)CN1C(=O)C2(CCN(Cc3cccc(C(F)(F)F)c3)CC2)c2ccccc21", 6.85],
  ["CCCCCCN1CCC2(CC1)C(=O)N(CC(=O)OC)c1ccccc12", 6.09],
  ["O=C1N(Cc2ccccc2)c2ccccc2C12CCN(CC1CCCCCCC1)CC2", 6.92]
]}

Given item COC(=O)CN1C(=O)C2(CCN(C3CCC4CCCCC4C3)CC2)c2ccccc21 (stereo not shown) , the value recorded as its pIC50 is 6.05

Just so you know, measured pIC50 for CN1C(=O)C2(CCN(CC3CCCCCCC3)CC2)c2ccccc21 came out at 7.49

According to the records, this compound O=C1Nc2ccccc2C12CCN(CC1CCCCCCC1)CC2 displays pIC50 of 6.42

---

target: Mu (μ) opioid receptor (Homo sapiens); test: Filtration binding assay, mu opioid receptor (Damgo-H3 ligand); settings: 1 D4 cell line membrane, Damgo-H3 ligand; calculated mean where tested more than once; read-out: Mu (μ) IC50
Sequence (P35372 whole entry): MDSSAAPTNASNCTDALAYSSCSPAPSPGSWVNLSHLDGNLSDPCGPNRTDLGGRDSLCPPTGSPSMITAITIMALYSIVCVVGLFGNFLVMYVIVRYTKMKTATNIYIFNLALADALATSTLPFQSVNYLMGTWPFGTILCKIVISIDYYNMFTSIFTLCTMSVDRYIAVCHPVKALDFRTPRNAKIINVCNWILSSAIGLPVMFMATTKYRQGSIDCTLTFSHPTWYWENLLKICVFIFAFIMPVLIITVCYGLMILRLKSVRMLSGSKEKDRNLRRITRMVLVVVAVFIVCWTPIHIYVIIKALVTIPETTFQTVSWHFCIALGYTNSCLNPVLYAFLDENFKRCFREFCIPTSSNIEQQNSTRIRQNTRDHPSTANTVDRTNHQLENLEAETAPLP
value-kind: IC50 (nM)
Your answer is read as nM, so omit the unit and give the number.

Worked examples, 2 compounds total:
{"columns": ["structure-smiles-string", "readout-units", "readout-value"],
 "data": [
  ["CCN1C(=O)C2(CCN(CC3CCCCCCC3)CC2)c2ccc(OC)cc21", "nM", 1460],
  ["O=C1N(Cc2ccccc2)c2ccccc2C12CCN(CC1CCCCCCC1)CC2", "nM", 960]
]}

// moving on: another record for IC50
The recorded IC50 for CC(=O)OCCN1C(=O)C2(CCN(CC3CCCCCCC3)CC2)c2ccccc21 is 1410
